Test system: C. elegans
Assay: Worm lifespan analysis
Format: in vivo
Details: N2, 1000 nM, vs N2 + water
Readings of variation compared to control (%) for the listed compounds
readout_type: variation compared to control (%)

1) NC(=O)c1ccc[n+]([C@@H]2O[C@H](CO)[C@@H](O)[C@H]2O)c1 [NR, nicotinamide riboside]	+11.7%
2) O=C(c1cc(Cc2n[nH]c(=O)c3ccccc23)ccc1F)N1CCN(C(=O)C2CC2)CC1	+9.2%
3) NC(=O)c1cccnc1 [NAM, nicotinamide]	+9.5%
4) C[C@]1(c2nc3c(C(N)=O)cccc3[nH]2)CCCN1	+3.6%

###

Test system: C. elegans
Experiment: Worm lifespan analysis
Format: in vivo
Settings: N2, 1000 nM
Readings of mean lifespan ± SE for the listed molecules
readout_type: mean lifespan ± SE (days)

1. NC(=O)c1ccc[n+]([C@@H]2O[C@H](CO)[C@@H](O)[C@H]2O)c1 [NR, nicotinamide riboside]	20.0
2. C[C@]1(c2nc3c(C(N)=O)cccc3[nH]2)CCCN1 [ABT-888]	20.0
3. NC(=O)c1cccnc1 [NAM, nicotinamide]	21.8
4. O=C(c1cc(Cc2n[nH]c(=O)c3ccccc23)ccc1F)N1CCN(C(=O)C2CC2)CC1 [AZD2281]	21.2
